Hello, the source for this data is the array DNA melting data of Ke et al. (doi:10.1101/2024.01.08.574731), in case you need it.

test: folding enthalpy; higher = less favourable; fluorescence melt of hairpins on a sequencing array, two-state fit; conditions: sodium 0.088 M
Decision: folding enthalpy >= -20 kcal/mol yields Criterion met, all other cases yield Criterion not met.

>>> df
                            sequence_text         class_name
 0  GAACCCGAAAGGGATTTC ((((((....)))..)))      Criterion met
 1  GTGGTAGGAAACTACTAC ((.((((....)))).))  Criterion not met
 2  GTTCGAGGAAACTTGGAC ((.(.((....)).).))      Criterion met
 3  GCGGTGCGAAAGCAATGC ((..(((....)))..))  Criterion not met
 4      GATCGTGATCACGATC ((((((....))))))  Criterion not met
 5  GCCCGAGGAAACTCGGAC (.(((((....))))).)      Criterion met
 6      GATCTCGCACGAGATC ((((((....))))))  Criterion not met
 7        GATCCCCGCGGGATC ((((((...))))))  Criterion not met
 8      GATCTGGTCGCAGATC ((((((....))))))  Criterion not met
 9  GCCTACGAAAGTACAGGC ((((((....)))..)))  Criterion not met
10  GACAGTGGAAACACTGCC (.(((((....))))).)      Criterion met
11      GATCTGTCTTCAGATC ((((((....))))))  Criterion not met
12  GACCGGGGAAACCCGGCC (.(((((....))))).)      Criterion met
13  GTCTGGGGAAACCTAGAC ((((.((....)).))))  Criterion not met
14    GGTCGTCGAAAGACACC (((.(((....))))))  Criterion not met
15  GGCTGGGGAAACCCAGTC (.(((((....))))).)  Criterion not met
16  GCCAAGCGAAAGCATTGC ((.(.((....)).).))      Criterion met
17  GCGTCGGCGAAAGCCCGC (((..(((....))))))      Criterion met
18      GATCGACTTCTCGATC ((((((....))))))  Criterion not met
19  GTCTGCGAAAGCAGAGAC ((((((....)))..)))      Criterion met
20      GATCATTTGGATGATC ((((((....))))))  Criterion not met
21  GCTTAGCGAAAGCTTCGC ((..(((....)))..))      Criterion met
22  GCTCCCGGAAACGGAAGC (((.(((....))).)))  Criterion not met

---

test: melting temperature; fluorescence melt of hairpins on a sequencing array, two-state fit, raised by 9.35 °C to match UV melts; details: sodium 0.088 M
Assign labels as follows, please: fulfilled for Tm below 50 °C; not fulfilled for Tm equal to or exceeding 50 °C.

In [3]: df
Out[3]:
                            sequence_text     class_name
 0    GCTCGCGAAAGCGAAGC ((((((....))).)))  not fulfilled
 1  GGCTTGGGAAACCGAGTC (.((.((....)).)).)      fulfilled
 2  GGCTTCGAAAGAAACGCC ((((((....)))..)))      fulfilled
 3      GATCGGAGTGCCGATC ((((((....))))))  not fulfilled
 4  GCGTTGCGAAAGCCACGC ((((.((....)).))))  not fulfilled
 5  GGAGGTTCGAAAGAATCC (((..(((....))))))      fulfilled
 6    GCGGTCGAAAGACGCGC ((((((....))).)))  not fulfilled
 7      GATCACAATAGTGATC ((((((....))))))  not fulfilled
 8  GTGCAAGGAAACTCGCAC ((((.((....)).))))      fulfilled
 9      GATCCGATCACGGATC ((((((....))))))  not fulfilled
10      GATCATGCTGATGATC ((((((....))))))      fulfilled
11  GACGTCGCGAAAGCGGTC (((..(((....))))))      fulfilled
12  GCGCAGCGAAAGCCACGC (((..((....))..)))      fulfilled
13      GATCCCTCACGGGATC ((((((....))))))  not fulfilled
14      GATCCGTATACGGATC ((((((....))))))  not fulfilled
15  CGCATCCGGAAACGGGCG (((..(((....))))))      fulfilled
16      GATCGCCAGAGCGATC ((((((....))))))  not fulfilled
17  GCATGCGCGAAAGCGTGC (((..(((....))))))  not fulfilled
18  GGAAACCGAAAGGTGTCC (((.(((....))).)))  not fulfilled
19      GATCGAGCGATCGATC ((((((....))))))  not fulfilled
20  GCCCATCGAAAGATCGGC (((.(((....))).)))      fulfilled
21  GCGGAGACGAAAGTCCGC (((..(((....))))))  not fulfilled
22  GTTCGGCCGAAAGGCAAC (((..(((....))))))      fulfilled
23      GATCATCTATATGATC ((((((....))))))      fulfilled
24  GTATTTGGAAACAGATAC ((((.((....)).))))      fulfilled
25  GTCCGGGGAAACCCGAAC ((.((((....)))).))      fulfilled
26  GTATATGCGAAAGCATAC (((..(((....))))))      fulfilled
27    GACCTACGAAAGTAGTC (((.(((....))))))      fulfilled
28  GTGCCCGAAAGGGCTCAC ((((((....)))..)))      fulfilled
29  GGCCCTCGAAAGAGCGCC (((.(((....))).)))  not fulfilled
30  GCAGGCCCGAAAGGGTGC (((..(((....))))))      fulfilled
31    GCGCCTCGAAAGAGCGC (((.(((....))))))  not fulfilled
32  GCCGCGCGAAAGCGCAGC ((.((((....)))).))  not fulfilled
33      GATCGACATGTCGATC ((((((....))))))  not fulfilled
34    GAGATGCGAAAGCACTC (((.(((....))))))      fulfilled
35  GGACTACGAAAGTACTCC (((.(((....))).)))      fulfilled
36  GACACTCCGAAAGGAGTC (((..(((....))))))      fulfilled
37  GAACTCGGAAACGAGCTC ((.((((....)))).))      fulfilled
38  GTCGCAGGAAACCGCAAC ((.((.(....).)).))      fulfilled
39  GGATTCCGAAAGGAGTCC (((.(((....))).)))  not fulfilled
40      GATCTACCGGTAGATC ((((((....))))))  not fulfilled
41  GTCATCGGAAACGATAAC ((.((((....)))).))      fulfilled
42  GCCGCTCCGAAAGGAGGC (((..(((....))))))  not fulfilled
43  CGCATTCGGAAACGAGCG (((..(((....))))))      fulfilled
